assayTarget: T1, recombinant human IL-6 (human, UniProt P05231 30-212, limits assumed)
T1 construct: also called rhIL6; human recombinant IL-6
assayExplanation: Biacore 2000, mAb captured on anti-human IgG CM5 chip, human IL-6 40-1.25 nM injected
pKd: −log10 of the molar value.
Reported values of pKd for individual entries

>  <binder>
mAb 1339 (antibody, human IgG1, kappa, V domains shown) VH: QVTLKESGPTLVKPTQTLTLTCSFSGFSLSTSGVGVGWVRQPPGKALEWLAFIWWDDDKYYSPSLESRLTITKDTSKNQVVLTMTNMDPVDTATYYCARSADDYLYYSFDTWGQGTLVTVSS VL: DIQMTQSPSSLSAFVGDGVTMTCWASQSINDYLNWYHQRPGEAPELLVFAASNLQIGVPSRFRGSGSETYFTLTINSLQPEDSGTYFCQNAHSFPLTFGGGTKLEIKR

>  <pKd>
10.15

$$$$
>  <binder>
mAb 1338 (antibody, V domains shown) VH: QVTLKESGPTLVKPTQTLTLTCSFSGFSLSTSGVGVGWVRQPPGKALEWLAFIWWDDDKYYSPSLESRLTITKDTSKNQVVLTMTNMDPVDTATYYCARSADDYLYYSFDTWGQGTLVT VL: DIQMTQSPSSLSAFVGDGVTMTCWASQSINDYLNWYHQRPGEAPELLVFAASNLQIGVPSRFRGSGSETYFTLTINSLQPEDSGTYFCQSGHSFPLTFGGGTKLEI

>  <pKd>
10.14

$$$$
>  <binder>
mAb 88 (chimeric B-E8 control antibody) (antibody, V domains shown, Biotinylated in FIG. 16., Chimeric form of murine B-E8; also called control mAb 88) VH: QVTLKESGPGILKPSQTLSLTCSFSGFSLSTSGMGVGWIRQPSGKGLEWLAHIWWDDDKYYNPSLKSQLTISKDTSRNQVFLKITSVDTADTATYYCARSYDDYLYYALDYWGQGTSVTVSS VL: DIVMTQSPATLSVTPGDRVSLSCRASQSISDYLHWYQQKSHESPRLLIKSVSQSISGIPSRFSGSGSGSDFTLSINSVEPEDVGVYYCQNGHSFPLTFGAGTKLELK

>  <pKd>
10.70

$$$$
>  <binder>
mAb 416 (antibody, V domains shown) VH: QVTLKESGPTLVKPTQTLTLTCSFSGFSLSTSGVGVGWVRQPPGKALEWLAFIFWDDDKYYSPSLESRLTITKDTSKNQVVLTMTNMDPVDTATYYCARSYDDYLYYALDYWGQGTLVT VL: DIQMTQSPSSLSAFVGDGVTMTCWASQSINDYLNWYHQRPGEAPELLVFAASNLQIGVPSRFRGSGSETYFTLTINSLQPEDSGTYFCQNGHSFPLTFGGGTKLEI

>  <pKd>
9.52

$$$$
>  <binder>
mAb 1259 (antibody, V domains shown) VH: QVTLKESGPTLVKPTQTLTLTCSFSGFSLSTSGVGVGWVRQPPGKALEWLAFIWWDDDKYYSPSLESRLTITKDTSKNQVVLTMTNMDPVDTATYYCARSADDYLYYSFDTWGQGTLVT VL: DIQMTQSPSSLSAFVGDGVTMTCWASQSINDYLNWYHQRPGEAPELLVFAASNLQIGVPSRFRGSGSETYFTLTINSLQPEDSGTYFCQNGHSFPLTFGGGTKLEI

>  <pKd>
10.03

$$$$
>  <binder>
mAb 926 (antibody, human IgG1, kappa, V domains shown) VH: QVTLKESGPTLVKPTQTLTLTCSFSGFSLSTSGVGVGWVRQPPGKALEWLAFIFWDDDKYYSPSLESRLTITKDTSKNQVVLTMTNMDPVDTATYYCARSADDYLYYALDYWGQGTLVTVSS VL: DIQMTQSPSSLSAFVGDGVTMTCWASQSINDYLNWYHQRPGEAPELLVFAASNLQIGVPSRFRGSGSETYFTLTINSLQPEDSGTYFCQNGHSFPLTFGGGTKLEIKR

>  <pKd>
9.89

$$$$
